Species on record: Rattus norvegicus
ASSAY PROCEDURE: DrugMatrix - Regimen: Daily Repeat
Type: toxicity, organism-based, Sprague-Dawley
Set-up: regimen Daily Repeat, gender Male, age 6-8 weeks
SETUP CONDITIONS: in vivo, po, 0 mg/kg, 120 h, tissue Plasma, route oral GAVAGE, dose level Control, time 5 day, […]
MEASURED ENDPOINT: ASPARTATE AMINOTRANSFERASE (u/L)
Give bare numbers, in u/L.

The examples below pair each entry with its known result.
| COMPOUND | UNIT | VALUE MEASURED |
| --- | --- | --- |
| Cc1noc(NS(=O)(=O)c2ccc(N)cc2)c1C | u/L | 89.17 |
| CN(C)c1nc(N(C)C)nc(N(C)C)n1 | u/L | 142.33 |
| CC(C)(Oc1ccc(Cl)cc1)C(=O)O | u/L | 93.67 |
| C[C@@H]1CN(c2c(F)c(N)c3c(=O)c(C(=O)O)cn(C4CC4)c3c2F)C[C@H](C)N1 | u/L | 142.33 |
| OC(Cn1cncn1)(Cn1cncn1)c1ccc(F)cc1F | u/L | 81.33 |

I need ASPARTATE AMINOTRANSFERASE for every entry listed below, if you could help.
1. O=c1oc2ccccc2c(O)c1Cc1c(O)c2ccccc2oc1=O
2. CCC(C)n1ncn(-c2ccc(N3CCN(c4ccc(OCC5COC(Cn6cncn6)(c6ccc(Cl)cc6Cl)O5)cc4)CC3)cc2)c1=O (centres undefined)
3. Cc1ccc(-c2cc(C(F)(F)F)nn2-c2ccc(S(N)(=O)=O)cc2)cc1

OUTPUT:
[88.5, 81.33, 81.33]

INPUT: Give a short answer stating reported ASPARTATE AMINOTRANSFERASE for C[C@H]1O[C@@H](O[C@H]2[C@@H](O)C[C@H](O[C@H]3[C@@H](O)C[C@H](O[C@H]4CC[C@@]5(C)[C@H](CC[C@@H]6[C@@H]5C[C@@H](O)[C@]5(C)[C@@H](C7=CC(=O)OC7)CC[C@]65O)C4)O[C@@H]3C)O[C@@H]2C)C[C@H](O)[C@@H]1O .
OUTPUT: 83.17

###

Organism: Rattus norvegicus
ASSAY PROCEDURE: DrugMatrix - Regimen: Daily Repeat
Type: toxicity, organism-based, Sprague-Dawley
Set-up: regimen Daily Repeat, gender Male, age 6-8 weeks
SETUP CONDITIONS: in vivo, po, 0 mg/kg, 72 h, tissue Blood, route oral GAVAGE, dose level Control, time 3 day, vehicle 100 % WATER
MEASURED ENDPOINT: ABSOLUTE LYMPHOCYTE (CELLS/uL)
Answers are plain numbers, in CELLS/uL.

Okay, here is my list. What is ABSOLUTE LYMPHOCYTE for each of these?
1. N[C@@H](Cc1ccc(O)c(O)c1)C(=O)O
2. CN(C)CCCN1c2ccccc2Sc2ccc(Cl)cc21
3. C[C@](N)(Cc1ccc(O)c(O)c1)C(=O)O
4. c1ccc([C@H]2CN3CCSC3=N2)cc1
5. CC(O)CO (centres undefined)
6. C[C@H]1c2cccc(O)c2C(=O)C2=C(O)[C@]3(O)C(=O)C(C(N)=O)=C(O)[C@@H](N(C)C)[C@@H]3[C@@H](O)[C@@H]21.O
7. C=CCC1(C(C)CCC)C(=O)NC(=O)NC1=O (centres undefined)
8. Cc1onc(-c2ccccc2Cl)c1C(=O)N[C@@H]1C(=O)N2[C@@H]1SC(C)(C)[C@@H]2C(=O)O

OUTPUT:
12090.17
10696
10225.67
12371.67
13599.5
12090.17
9305.83
13599.5

INPUT: Provide one value: measured ABSOLUTE LYMPHOCYTE of C[C@H](CS)C(=O)N1CCC[C@H]1C(=O)O
OUTPUT: 10386.33

###

Organism: Rattus norvegicus
ASSAY PROCEDURE: DrugMatrix - Regimen: Daily Repeat
Type: toxicity, organism-based, Sprague-Dawley
Design: regimen Daily Repeat, gender Male, age 6-8 weeks
SETUP CONDITIONS: in vivo, po, 0 mg/kg, 72 h, tissue Blood, route oral GAVAGE, dose level Control, time 3 day, vehicle .5 % CMC
What MEAN CORPUSCULAR HEMOGLOBIN was measured for each of the following?
One number for each entry, in pg.

| ENTRY SMILES | VALUE MEASURED |
| --- | --- |
| Cc1nc2n(c(=O)c1CCN1CCC(c3noc4cc(F)ccc34)CC1)CCCC2 | 23.58 |
| CC(C)(C)NC(=O)[C@@H]1C[C@@H]2CCCC[C@@H]2CN1C[C@@H](O)[C@H](Cc1ccccc1)NC(=O)[C@H](CC(N)=O)NC(=O)c1ccc2ccccc2n1 | 23.37 |

INPUT: Give recorded MEAN CORPUSCULAR HEMOGLOBIN. CCOP(=S)(OCC)Oc1nc(Cl)c(Cl)cc1Cl
OUTPUT: 21.35

###

Species: Rattus norvegicus
ASSAY PROCEDURE: DrugMatrix - Regimen: Daily Repeat
Assay type: toxicity, organism-based, Sprague-Dawley
Set-up: regimen Daily Repeat, gender Male, age 6-8 weeks
SETUP CONDITIONS: in vivo, po, 0 mg/kg, 2184 h, tissue Blood, route oral GAVAGE, dose level Control, time 91 day, vehicle .5 % CMC
MEASURED ENDPOINT: ABSOLUTE SEGMENTED NEUTROPHIL (cells/µL)
One number for each entry, in cells/µL.

INPUT: Consider the compound Cc1ccc2cc3c(ccc4ccccc43)c3c2c1CC3 and give its recorded ABSOLUTE SEGMENTED NEUTROPHIL.
OUTPUT: 1530

###

Species: Rattus norvegicus
ASSAY PROCEDURE: DrugMatrix - Regimen: Daily Repeat
Assay type: toxicity, organism-based, Sprague-Dawley
Set-up: regimen Daily Repeat, gender Male, age 6-8 weeks
SETUP CONDITIONS: in vivo, po, 0 mg/kg, 120 h, tissue Blood, route oral GAVAGE, dose level Control, time 5 day, vehicle .5 % CMC
Give measured MEAN CORPUSCULAR HEMOGLOBIN CONCENTRATION for each item. Keep answers brief.
Numbers only, in G/DL.

Worked cases, answers included:
| COMPOUND | VALUE MEASURED |
| --- | --- |
| NC1=NC(=O)C(c2ccccc2)O1 (centres undefined) | 38.25 |
| CC(C)(C)NC(=O)[C@@H]1C[C@@H]2CCCC[C@@H]2CN1C[C@@H](O)[C@H](Cc1ccccc1)NC(=O)[C@H](CC(N)=O)NC(=O)c1ccc2ccccc2n1 | 37.47 |
| O=C(CCCN1CC=C(n2c(=O)[nH]c3ccccc32)CC1)c1ccc(F)cc1 | 31.52 |
| ClC(Cl)Br | 36.42 |

List MEAN CORPUSCULAR HEMOGLOBIN CONCENTRATION for every entry below, keeping the order given.
1. COc1nc(C)nc(Cl)c1N=C1NCCN1
2. CCCN1C[C@H](CSC)C[C@@H]2c3cccc4[nH]cc(c34)C[C@H]21 [PERGOLIDE]
3. N=C(N)NCCN1CCCCCCC1
4. Cc1ccc(/N=C/N(C)/C=N/c2ccc(C)cc2C)c(C)c1

OUTPUT:
1: 39.22; 2: 38.03; 3: 39.97; 4: 40.43

INPUT: Specify reported MEAN CORPUSCULAR HEMOGLOBIN CONCENTRATION for the compound shown: C1CCC(C(CC2CCCCN2)C2CCCCC2)CC1 (centres undefined)
OUTPUT: 31.62

###

Species: Rattus norvegicus
ASSAY PROCEDURE: DrugMatrix - Regimen: Daily Repeat
Format: toxicity, organism-based, Sprague-Dawley
Parameters: regimen Daily Repeat, gender Male, age 6-8 weeks
SETUP CONDITIONS: in vivo, po, 0 mg/kg, 72 h, tissue Blood, route oral GAVAGE, dose level Control, time 3 day, […]
Answer each item with its documented BASOPHIL.
One number for each entry, in %.

Use these answered entries as a reference point.
| MOLECULE | BASOPHIL (%) |
| --- | --- |
| C[C@@H]1CN(c2c(F)c(N)c3c(=O)c(C(=O)O)cn(C4CC4)c3c2F)C[C@H](C)N1 | 0 |
| O=c1oc2ccccc2c(O)c1Cc1c(O)c2ccccc2oc1=O | 0 |
| Cc1oncc1C(=O)Nc1ccc(C(F)(F)F)cc1 [LEFLUNOMIDE] | 0 |
| O=C(O)CCCc1ccc(N(CCCl)CCCl)cc1 | 0 |
| CC(C)C(=O)Nc1ccc([N+](=O)[O-])c(C(F)(F)F)c1 [FLUTAMIDE] | 0 |

Go through the items and report each one's BASOPHIL.
1. Cc1ccc(-c2cc(C(F)(F)F)nn2-c2ccc(S(N)(=O)=O)cc2)cc1
2. CC(C)(Oc1ccc(Cl)cc1)C(=O)O
3. CCOC(=O)C1=C(COCCN)NC(C)=C(C(=O)OC)C1c1ccccc1Cl (stereo unspecified)
4. OC(Cn1cncn1)(Cn1cncn1)c1ccc(F)cc1F
5. Cc1noc(NS(=O)(=O)c2ccc(N)cc2)c1C
6. CCC(C)n1ncn(-c2ccc(N3CCN(c4ccc(OCC5COC(Cn6cncn6)(c6ccc(Cl)cc6Cl)O5)cc4)CC3)cc2)c1=O (stereo unspecified)
7. C[C@H]1O[C@@H](O[C@H]2[C@@H](O)C[C@H](O[C@H]3[C@@H](O)C[C@H](O[C@H]4CC[C@@]5(C)[C@H](CC[C@@H]6[C@@H]5C[C@@H](O)[C@]5(C)[C@@H](C7=CC(=O)OC7)CC[C@]65O)C4)O[C@@H]3C)O[C@@H]2C)C[C@H](O)[C@@H]1O
8. CN(C)c1nc(N(C)C)nc(N(C)C)n1

OUTPUT:
1. 0
2. 0
3. 0
4. 0
5. 0
6. 0
7. 0
8. 0
